# assayTarget: T1, human IGF2^1-67 (mature insulin-like growth factor 2) (human, UniProt P01344 25-91, biotinylated (site not stated) where immobilised on the chip (Tables 1-4))
# T1 construct: mature; also called mature IGF2; biotinylated IGF2
# T1 sequence (P01344 25-91): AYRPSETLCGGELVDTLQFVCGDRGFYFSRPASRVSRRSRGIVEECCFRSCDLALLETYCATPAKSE
# measurementProtocol: SPR steady state, biotin-IGF2 on chip, pH 7.4
measuredEndpoint: Kd (nM)

A. domain 11^AB5 G1603A (receptor, See m5) MKSNEHDDCQVTNPSTGHLFDLSSLSGRAGFTAAYAKGWGVYMSICGENENCPPGVGACFGQTRISVGKANKRLRYVDQVLQLVYKDGSPCPSKSALSYKSVISFVCRPEAGPTNRPMLISLDKQTCTLFFSWHTPLACEQATECSV
B. domain 11^AB5 S1602Q (receptor, See m5) MKSNEHDDCQVTNPSTGHLFDLSSLSGRAGFTAAYAKGWGVYMSICGENENCPPGVGACFGQTRISVGKANKRLRYVDQVLQLVYKDGSPCPSKQGLSYKSVISFVCRPEAGPTNRPMLISLDKQTCTLFFSWHTPLACEQATECSV
# returns the entry with the larger Kd; inputs A and B Identify your pick by its label. A
(A: 12.1 nM, B: 5.11 nM)
